tested on: HCT116 (colorectal cancer) cells; experiment: Resazurin-based cell viability assay using colorectal cancer cells; details: Homo sapiens, HCT-116, 72 hr incubation
pIC50: −log10 of the molar value.
OBSERVABLE: pIC50

STRUCTURE SMILES STRING | pIC50
Cc1noc(/C=C/C(=O)N2CCCC=CC2=O)n1 | 5.23

[1] Cc1n[nH]c(C)c1/C=C/C(=O)N1CCC=CC1=O
[2] CN1CCC(/C=C/C(=O)N2CCC=CC2=O)CC1
Asked: For the two items 1 and 2 , which reports the higher pIC50 value? Write down the label of the entry you select.
Given back: 2
(2: 5.91, 1: 5.29)

###

system: HCT116 (colorectal cancer) cells; test: Resazurin-based cell viability assay using colorectal cancer cells; conditions: Homo sapiens, HCT-116, 72 hr incubation
OBSERVABLE: IC50 (µM)

STRUCTURE SMILES STRING | TARGET DESC | READOUT UNITS | IC50
COc1cc(/C=C/C(=O)N2C(=O)C=CCC2(C)C)cc(OC)c1OC | HCT116 (colorectal cancer) cells | µM | 3.15
CS(=O)(=O)N1CCC(/C=C/C(=O)N2CCC=CC2=O)CC1 | HCT116 (colorectal cancer) cells | µM | 3.14

[A] O=C1C=C(Cl)CCN1C(=O)/C=C/c1ncccn1
[B] C/C(=C/C1CCN(C(=O)OC(C)(C)C)CC1)C(=O)N1CCC=CC1=O
Asked: Determine, for A and B , which has the greater value of IC50. // output: label of the selected item
Given back: B

###

tested on: MOLP-8; test: In vitro cell viability assay (CellTiter-Glo, ATP levels), multiple myeloma cells; assay type: cell-based; conditions: Homo sapiens, MOLP-8, 168 h, 7-day incubation, CellTiter-Glo, average values; read-out: MOLP-8 IC50
OBSERVABLE: IC50 (nM)

STRUCTURE SMILES STRING | TARGET DESC | IC50 / nM
O=C1C=CCCN1C(=O)/C=C/C1CCN(c2ccc(F)cc2)CC1 | MOLP-8 | 680
O=C1C=CCCCN1C(=O)/C=C/c1ccncc1 | MOLP-8 | 490
O=C1C=CCCN1C(=O)/C=C/C1CCN(CC2CC2)CC1 | MOLP-8 | 490
